Data credit: patent US20200157092A1

assayedTarget: OGA (Homo sapiens)
Construct: HEK293 cells inducible for P301L mutant human Tau (isoform 2N4R) were established at Janssen; endogenous in cells
protocolSummary: OGA cellular assay: immunocytochemical detection of O-GlcNAcylated proteins in HEK293 cells inducible for P301L mutant human Tau
pEC50: −log10 of the molar value.
measurementKind: pEC50

compound: CC(=O)Nc1ncc(CN2CC[C@H](Cc3nccn4c(C)cnc34)C2)s1 [Product 104]
measurementKind: pEC50
endpointValue: 7.21
--
compound: CC(=O)Nc1ncc(CN2CCCC(c3cc4cc[nH]c4nc3C)C2)s1 (racemic) [Product 74]
measurementKind: pEC50
endpointValue: 7.87
--
compound: CC(=O)Nc1ncc(CN2CCCC(c3nc(C)cc4ccn(C)c34)C2)s1 (stereo not drawn) [Product 88]
measurementKind: pEC50
endpointValue: 6.39
--
compound: CC(=O)Nc1ncc(CN2CCCC(Cc3cnc4cc[nH]c4c3)C2)s1 (stereo not drawn) [Product 97]
measurementKind: pEC50
endpointValue: 8.11
--
compound: CC(=O)Nc1ncc(CN2CCCC(Cc3cccc4nccn34)C2)s1 (stereo not drawn) [Product 66]
measurementKind: pEC50
endpointValue: 7.74
--
compound: CC(=O)Nc1ncc(CN2CCCC(c3cc(C(F)F)n4ccnc4n3)C2)s1 (racemic) [Product 24]
measurementKind: pEC50
endpointValue: 6.32
--
compound: CC(=O)Nc1ncc(CN2CCC(Cc3cc(C)nc4ncnn34)C2)s1 (stereo not drawn) [Product 48]
measurementKind: pEC50
endpointValue: 7.77
--
compound: CC(=O)Nc1ncc(CN2CCC3(CC3)C(c3cc(C(F)F)nc4ncnn34)C2)s1 (stereo not drawn) [Product 64]
measurementKind: pEC50
endpointValue: 5.32
--
compound: CC(=O)Nc1ncc(CN2CCCC(Cc3cc(C)nc4ccnn34)C2)s1 (stereo not drawn) [Product 44]
measurementKind: pEC50
endpointValue: 7.45
